Reference source: ChEMBL document CHEMBL4673219

Assay: AUClast in Sprague-Dawley rat at 10 mg/kg, iv measured up to 24 hrs by LC-MS/MS analysis
Type: ADME, organism-based
Set-up: route intravenous, dose 10 mg/kg, time <=24
Conditions: in vivo
Measured parameter: AUC(0-t) at 24 h (ng·h/mL)
Note: unit ng·h/mL is implicit; provide only the numeric part.

Query: Find the recorded AUC(0-t) at 24 h belonging to `CCCCCCCC(=O)Nc1nc2[nH]c(CN3CCN(Cc4cccc(F)c4)CC3)c(CN3CCN(Cc4cccc(F)c4)CC3)c2c(=O)[nH]1` and report it.
Result: 317

====

Experiment: Oral bioavailability in Sprague-Dawley rat at 10 mg/kg measured up to 24 hrs by LC-MS/MS analysis
Format: ADME, organism-based
Conditions: in vivo
Measured parameter: bioavailability (%)
# output: bare number, implied unit %

Query: // bioavailability lookup, key: `CCCCCCCC(=O)Nc1nc2[nH]c(CN3CCN(Cc4cccc(F)c4)CC3)c(CN3CCN(Cc4cccc(F)c4)CC3)c2c(=O)[nH]1`
Result: 12.3
